These entries and their values trace back to the Deep4Chem optical property database.

# Assay text: solvent given as SMILES
# Test context: in CCO
Decide by absorption maximum: equal to or exceeding 400 nm means yes (1), less means no (0).

                    structure_smiles_string  assigned_label
0  C=CCNc1ccc2ccc3oc4cc(=[N+](C)C)ccc-4nc3c2c1         yes (1)
1  CCOC(=O)c1ccccc1-c1c2ccc(=O)cc-2oc2cc(OC(=O)[C@H](CO[Si](C)(C)C(C)(C)C)NC(=O)OC(C)(C)C)ccc12         yes (1)
2  CCN(CC)c1ccc(/C=C/C(=O)c2c(O)cc(C)oc2=O)cc1         yes (1)
3                OC1(c2ccc(-c3cccs3)s2)CCC1          no (0)
4  CCC1=C(C)C2=C(c3c(C)cc(C)nc3-c3cccs3)c3c(C)c(CC)c(C)n3[B-](F)(F)[N+]2=C1C         yes (1)

Q: Decide: absorption maximum of CCC1=C(C)C2=Cc3cc(I)cn3[B-](F)(F)[N+]2=C1C >= 400 nm?
Result: yes (1)

Q: Decide: absorption maximum of Nc1cccc2c1-c1ccccc1C2=O >= 400 nm?
Result: yes (1)

Q: Decide: absorption maximum of CCC1(CC)c2cc(N(C)C)ccc2-c2ccc(C(F)(F)F)cc21 >= 400 nm?
Result: no (0)

Q: Decide: absorption maximum of CC(C)n1c2cc(O)c(F)cc2c(=O)c2cc(F)c(O)cc21 >= 400 nm?
Result: no (0)
